The entries below come with measured activation values attached.
System name: Atrial natriuretic peptide receptor 2 (Homo sapiens) (UniProt P20594)
Sequence (P20594 whole entry, looked up): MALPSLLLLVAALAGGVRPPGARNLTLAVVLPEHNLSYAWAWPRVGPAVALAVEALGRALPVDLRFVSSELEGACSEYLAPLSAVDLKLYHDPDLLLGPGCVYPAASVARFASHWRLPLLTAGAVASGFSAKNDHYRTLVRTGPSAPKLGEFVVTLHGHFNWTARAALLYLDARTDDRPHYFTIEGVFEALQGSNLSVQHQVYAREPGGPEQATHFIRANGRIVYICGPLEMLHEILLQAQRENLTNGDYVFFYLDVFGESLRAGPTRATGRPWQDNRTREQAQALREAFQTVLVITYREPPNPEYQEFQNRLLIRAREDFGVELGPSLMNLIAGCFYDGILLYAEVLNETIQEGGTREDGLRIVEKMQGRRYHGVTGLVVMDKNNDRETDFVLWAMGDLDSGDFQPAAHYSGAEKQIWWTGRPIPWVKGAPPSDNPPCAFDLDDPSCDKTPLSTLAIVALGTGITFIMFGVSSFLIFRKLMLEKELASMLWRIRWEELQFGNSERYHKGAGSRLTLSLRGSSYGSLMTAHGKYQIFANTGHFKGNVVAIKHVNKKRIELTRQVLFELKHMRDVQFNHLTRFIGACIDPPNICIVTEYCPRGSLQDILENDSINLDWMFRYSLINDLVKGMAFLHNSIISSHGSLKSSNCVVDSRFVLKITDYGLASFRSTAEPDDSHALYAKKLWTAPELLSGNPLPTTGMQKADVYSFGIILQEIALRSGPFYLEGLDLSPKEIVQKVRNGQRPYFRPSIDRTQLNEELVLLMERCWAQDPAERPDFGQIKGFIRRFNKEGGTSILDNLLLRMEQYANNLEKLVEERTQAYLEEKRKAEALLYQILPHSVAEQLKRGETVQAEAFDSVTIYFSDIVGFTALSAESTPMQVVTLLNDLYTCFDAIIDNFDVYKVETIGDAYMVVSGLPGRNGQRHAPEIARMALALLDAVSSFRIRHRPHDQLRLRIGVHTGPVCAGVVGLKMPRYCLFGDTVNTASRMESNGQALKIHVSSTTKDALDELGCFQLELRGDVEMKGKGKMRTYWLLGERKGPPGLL
Test details: GC-B stimulated cGMP production enhancers – HEK293 GC-B cells, cGMP TR-FRET, EC30 CNP, primary screen (AID 1920062)
Measurement context: at 10 µM, active compounds read high, 0% at EC30 CNP, 100% saturating CNP
About 400 (0.11%) of roughly 370,000 compounds were called active. What follows is part of a selection rich in actives, with near analogues and random picks from the rest.
Quick reminder: number only, in %, skip the unit.

Compound	activation (%)
O=C(Nc1nccs1)C1CCN(S(=O)(=O)c2ccc(Cl)c(C(F)(F)F)c2)CC1	-2.77
COc1cc(/C=C2/C(=O)ON=C2C)ccc1OCc1ccccc1F	37.2
COc1ccc(-n2c(SCC(=O)Nc3ccc4c(c3)OCCO4)nnc2-c2ccc(Cl)cc2)cc1	-4.33
CCOC(=O)N1CCN(C(=O)CN(C2CCCCC2)S(C)(=O)=O)CC1	6.88
Cc1ccc(CNC(=O)C(=O)c2cn(CC(=O)N3CCOCC3)c3ccccc23)cc1	-3.39
O=C(NNC(=S)Nc1ccc(F)cc1)[C@H]1C[C@@H]1c1ccccc1	2.74
CC(C)C(NC(=O)c1c(F)cccc1F)C(=O)NNC(=O)c1ccccc1 (stereo not drawn)	3.58
O=C(NCc1ccncc1)C1CCCN(S(=O)(=O)c2ccc(Br)cc2)C1 (stereo not drawn)	-0.66
Cc1ccccc1C(=O)OC1OC(=O)C(Cl)=C1Nc1ccccc1 (stereo not drawn)	2.61
CCOc1c(Br)cc(/C=C2\C(=O)N(CCC#N)N=C2C)cc1OC	51.6

Quick one: activation of CCCCN(C)CCNC(=O)C1CCCN(S(=O)(=O)c2cccc3nsnc23)C1 (stereo not drawn) ?
4.51

Given CC(=O)C1(C(=O)Nc2nccs2)CC(c2ccccc2C(F)(F)F)=NO1 (stereo not drawn) , state its recorded activation.
1.69

What value of measured activation is listed for CC(C)(C)c1ccc(CSc2nnc(-c3cccs3)o2)cc1 ?
3.23

Given the compound O=C(CC1CCCCC1)NCc1ccccc1 , what is its reported activation?
0.16

Can you share its activation? I mean this compound: O=C(CCSc1ccccc1)N1CCN(c2ccccc2F)CC1
-0.35

Name the reported activation value associated with the compound CC(=O)c1cccc(-n2nnnc2SCC(=O)NNC(=O)C2CCCCC2)c1
1.65

Returns the measured activation for the input compound. Input: Cc1nc(CNc2ncnc3ccc(-c4ccc5c(c4)OCO5)cc23)cs1
3.38

###

System name: Atrial natriuretic peptide receptor 2 (Homo sapiens) (UniProt P20594)
Test details: GC-B stimulated cGMP production enhancers – HEK293 GC-B cells, cGMP TR-FRET, EC30 CNP, primary screen (AID 1920062)
Measurement context: at 10 µM, active compounds read high, 0% at EC30 CNP, 100% saturating CNP
About 400 (0.11%) of roughly 370,000 compounds were called active. The entries come from a sample that favours actives as a whole.
Property: activation (%)
Only the number, expressed in %, is required.

I would be grateful if you could share the reported activation for CC(CCc1ccc(O)cc1)NCc1ccc(Cl)cc1Cl (stereo unspecified) .
-2.85

Entry Cc1ccc(S(=O)(=O)N2CCOCC2)cc1NC(=O)CSc1nnc(N)s1 : reported activation = ?
-3.12

Sample CCC(C)(C)NC(=O)C(c1cccc(OC)c1OC)N(CC(C)C)C(=O)CCC(=O)Nc1cc(C)on1 (stereo unspecified) — what was its activation?
-7.74

Sample CC1CCCCC12NC(=O)N(CC(=O)Nc1ccc(S(=O)(=O)Nc3ncccn3)cc1)C2=O (stereo unspecified) — what was its activation?
1.08

Please look up its activation: O=Cc1c(Cl)cccc1Cl
-13.9

Which measured activation value corresponds to Cc1cc(Cl)ccc1OCc1nc(-c2ccncc2)no1 ?
-5.32

Which value of activation has been reported for CCCCc1ccc(S(N)(=O)=O)cc1 in the records?
1.33

# activation lookup, item Cc1ccc(C(=O)COC(=O)CCCC(=O)NC2CCCCC2)cc1[N+](=O)[O-]
-3.79

Requested field: activation. Item: CC1=NN(/C(=N\c2nnc(C)s2)Nc2ccccc2)[C@H](c2ccc(C)cc2)S1
-13.9

Field request: activation | item: C/C(Cl)=C\Cn1c(Nc2cccc(C)c2)nc2c1c(=O)n(C)c(=O)n2C
45.4

Reported activation for COc1ccc(S(=O)(=O)N2CCOCC2)cc1NC(=O)CSc1nnc(NC2CC2)s1 : what is it?
56.9

Entry C[C@@H]1CN([C@@H](C)CO)C(=O)CCCn2nncc2CO[C@H]1CN(C)Cc1ccc(C(F)(F)F)cc1 : reported activation = ?
-5.26

Would you mind telling me what activation value was observed for CC1CCCCN1S(=O)(=O)CCNC(=O)c1ccccc1 (stereo unspecified) ?
-2.73

Reference source for all entries: PubChem BioAssay AID1920062
